Source listed as PubChem BioAssay (NCATS).

# Test system: HEK293T
# test.description: qHTS assay to identify novel small-molecules to repurpose for Merkel cell carcinoma treatment (AID 1296009); also: nearly all actives have a fitted effect of over 60% in size
# cond: MCC and control cell lines, CellTiter-Glo viability, 72 h; at 44.8 µM (top of the series) unless noted
Results filed as inconclusive are left out. Active and inactive are the calls of the source. Calls follow the shape of the dose curve; as a rule, active = well fitted inhibition curve with a large enough effect; inconclusive = small, poorly fitted or top-dose-only effect; inactive = flat fitted curve, though single readings scatter.
attribute.measured: outcome

{"compound": "CC(C)C1CCC(CO)=CC1/C=C(\\CO)C(=O)OCC1(O)CCC(C(C)C)C2C=C(C(=O)O)COC(=O)C21 (stereo not drawn)", "outcome": "inactive [at 17.4 µM]"}
{"compound": "COC(=O)CCC1(C)C(C(C)(C)O)C(O)CC2(C)Oc3c(C)c4c(c(OC)c3CC21)C(=O)OC4 (stereo not drawn)", "outcome": "inactive [at 17.4 µM]"}
{"compound": "O=C1NC(=O)/C(=C/c2cccc(C(F)(F)F)c2)S1", "outcome": "inactive"}
{"compound": "CCOC(=O)C(CCc1ccccc1)NC1CCCN2CCCC(C(=O)O)N2C1=O (stereo not drawn)", "outcome": "inactive"}
{"compound": "c1ccc2c(Nc3nnc(-c4ccncc4)s3)cccc2c1", "outcome": "inactive"}

Kindly consider the entry below.
stdin: Please look up its outcome: CC1CCC23COC(=O)C2=CC(O)CC3C1(C)CCc1ccoc1 (stereo not drawn)
stdout: inactive

====

# Test system: HaCat
# test.description: Cytotoxic Profiling of Annotated Libraries Using Quantitative High-Throughput Screening (AID 1296008); also: nearly all actives have a fitted effect of over 60% in size
# cond: Five cell lines viability, CellTiter-Glo ATP luminescence, 48-72 h
# Experimental: Cell-based phenotypic screening is a commonly used approach to discover biological pathways, novel drug targets, chemical probes and high-quality hit-to-lead molecules. […] A pintool (Kalypsys) was used to transfer 23 nL of compound solution to the 1536-well assay plates. […] Plates were left at room temperature for 10 min before imaging the ATP-coupled luminescence using a ViewLux microplate imager (PerkinElmer, Waltham, MA).
Records with an inconclusive call do not appear. Activity calls are given as the source filed them. Calls follow the shape of the dose curve; as a rule, active = well fitted inhibition curve with a large enough effect; inconclusive = small, poorly fitted or top-dose-only effect; inactive = flat fitted curve, though single readings scatter. *1 amine or outer side, *2 acyl side, *3 side chain or, on linkers, in order; H or OH if unused. Where a SMILES comes first, the peptide text is derived from it. [ ]: non-standard residue; d: D form. X13 = O=C(C(CC(O)CO)O[*:1])[*:2]; NMeV = CN[CH](C(=O)O)C(C)C; NMeA = CN[CH](C)C(=O)O; βAla = NCCC(=O)O
attribute.measured: outcome

{"compound": "C/C=C(\\C)C(=O)OCC1OC(OCC2OC(OC3(CO)OC(CO)C(O)C3O)C(O)C(O)C2O)C(O)C(O)C1O (configuration not stated)", "reported.value": "inactive"}
{"compound": "COc1c2c(c(C)c3c1C(=O)OC3)OC1(C)CC(O)C34OC(OC)(CC(O)C3(C)C1C2)OC4(C)C (configuration not stated)", "reported.value": "inactive"}
{"compound": "COc1cc(/C=C/C(=O)O)ccc1O[C@@H]1O[C@H](CO)[C@@H](O)[C@H](O)[C@H]1O[C@@H]1OC[C@](O)(CO)[C@H]1O", "reported.value": "inactive"}
{"compound": "COc1cc(/C=C/C(=O)OC[C@H]2O[C@@H](OC3OC=C(C(=O)O)C4C(O)CC(C)(O)C34)[C@H](O)[C@@H](O)[C@@H]2O)cc(OC)c1O (some centres not stated)", "reported.value": "inactive"}
{"compound": "COc1ccc(CC(NC(C)=O)C(=O)O)cc1 (configuration not stated)", "reported.value": "inactive"}
{"compound": "C/C=C(\\C)C(=O)OC1CC2C(CC=C3CC(OC4CC(OC)C(OC5CC(OC)C(OC6CC(OC)C(OC7CC(OC)C(OC8CC(OC)C(OC9OC(CO)C(O)C(O)C9O)C(C)O8)C(C)O7)C(C)O6)C(C)O5)C(C)O4)CCC32C)C2(O)CCC(C(C)=O)C12C (configuration not stated)", "reported.value": "inactive"}

stdin: Look up outcome with HaCat for this compound: COc1ccc(/C=C/C(=O)N2CCCC2)cc1
stdout: inactive

stdin: Repeat with CCC(C)/C=C(C)/C=C/C1=CC2=C(Cl)C(=O)C(C)(OC(C)=O)C(=O)C2=CN1C(CCC(=O)O)C(=O)O (configuration not stated)
stdout: inactive

stdin: Repeat with CCC(C)C1NC(=O)C2CCCN2C(=O)C(CC(O)CO)OC(=O)CCNC(=O)C(C)N(C)C(=O)C(C(C)C)N(C)C1=O (configuration not stated) (cyclo([X13]PI[NMeV][NMeA][βAla]); configuration not given here)
stdout: inactive

====

# Test system: CAOV3
# test.description: Primary qHTS to identify gynecologic anti-cancer compounds using libraries of approved drugs and bioactive compounds (AID 1345084); also: nearly all actives have a fitted effect of over 55% in size
# cond: Gynecologic cancer cell panel viability, ATPlite luminescence, 48 h; series mostly up to 57.5 µM
# From the text: National Center for Advancing Translational Sciences [NCATS] Assay Overview: Chemotherapeutic drug responses vary from cancer to cancer and from patient to patient. […] ATPlite is a luminescence based assay reliant on the conversion of a luciferase substrate to light in the presence of ATP. As a cytotoxic compound will suppress growth and decrease the number of cells, the concentration of ATP will decrease, and less light signal will be detected in the well. […]
Inconclusive results are not listed. Activity calls are given as the source filed them. Calls follow the shape of the dose curve; as a rule, active = well fitted cell-killing curve with a large enough effect; inconclusive = small, poorly fitted or top-dose-only effect, or effect the other way; inactive = flat fitted curve, though single readings scatter.
attribute.measured: activity change, negative = cytotoxicity

{"compound": "CC1(CO)CCCC2(C)C3COC(=O)C3=CC(O)C12 (centres undefined)", "reported.value": "inactive"}
{"compound": "O=C(CCc1ccccc1)c1c(O)c([C@@H]2O[C@H](CO)[C@@H](O)[C@H](O)[C@H]2O)c(O)c([C@@H]2O[C@H](CO)[C@@H](O)[C@H](O)[C@H]2O)c1O", "reported.value": "inactive"}
{"compound": "COCc1c(O)c(C(=O)O)c(C)c2c1OC(=O)c1c(C)cc(O)c(CO)c1O2", "reported.value": "inactive"}
{"compound": "NC1(c2ccc(NC(=O)c3ccnc(-c4cc(C(=O)O)ccn4)c3)cc2)CC1", "reported.value": "inactive"}

====

# Tested on: Zika virus NS2B-NS3 protease (linked construct)
# test.description: Confirmatory screen NINDS AMC qHTS for Zika virus inhibitors (AID 1347152); also: nearly all actives have a fitted effect of over 70% in size; also: potency is read from the fitted curve at half-maximal effect
# cond: Purified linked NS2B-NS3, AMC substrate fluorescence; series mostly up to 56.6 µM
Results filed as inconclusive are left out. The source made the active and inactive calls. Calls come from the whole dose curve; as a rule, active = well fitted inhibition curve with a large enough effect; inconclusive = small, poorly fitted or top-dose-only effect; inactive = flat fitted curve, though single readings scatter. *1 amine or outer side, *2 acyl side, *3 side chain or, on linkers, in order; H or OH if unused. Where a SMILES comes first, the peptide text is derived from it. Bridges are numbered along the chain shown (N, C = ends). [ ]: non-standard residue; d: D form. The star is where a group is joined. ξ: configuration not given here. ξhTyr(3S-OH,4S-OH,3'-OSO3H) = NC(C(=O)O)[C@H](O)[C@@H](O)c1ccc(O)c(OS(=O)(=O)O)c1; Orn(4R-OH,5R-OH) = O=C([C@H](C[C@@H](O)[C@@H](O)N[*:3])N[*:1])[*:2]; X2 = CCCCCOc1ccc(-c2cc(-c3ccc(C(=O)*)cc3)no2)cc1; X3 = C[C@H]1CN([*:1])C(C(=O)[*:2])[C@H]1O; ξGln(3R-OH) = NC(=O)C[C@@H](O)C(N)C(=O)O; ξPro(4R-OH) = O=C(O)C1C[C@@H](O)CN1; ξThr(3R) = C[C@@H](O)C(N)C(=O)O
attribute.measured: Potency

Here's what some known entries look like.
{"compound": "C=C1C2CCC3CC2(CC(O)C2(O)C1CC(OC1OC(CO)C(O)C(O)C1O)C2(C)C)CC3(C)O (stereo not drawn)", "Potency": "inactive"}
{"compound": "Cc1cc(C)c2nc(-c3ccccn3)cc(C(=O)Nc3ccc(S(=O)(=O)Nc4onc(C)c4C)cc3)c2c1", "Potency": "22.1 µM (active)"}
{"compound": "CCCCCOc1ccc(-c2cc(-c3ccc(C(=O)N[C@H]4C[C@@H](O)[C@@H](O)NC(=O)C5[C@@H](O)[C@@H](C)CN5C(=O)C([C@H](O)CC(N)=O)NC(=O)C([C@H](O)[C@@H](O)c5ccc(O)c(OS(=O)(=O)O)c5)NC(=O)C5C[C@@H](O)CN5C(=O)C([C@@H](C)O)NC4=O)cc3)no2)cc1 (stereo partly drawn) (X2-[Orn(4R-OH,5R-OH)][ξThr(3R)][ξPro(4R-OH)][ξhTyr(3S-OH,4S-OH,3'-OSO3H)][ξGln(3R-OH)][X3]; lactam 1-C)", "Potency": "21.5 µM (active)"}
{"compound": "CC1C(O)C(O)C2C(C(=O)OCCc3ccc(O)cc3)=COC(O[C@@H]3O[C@H](CO)[C@@H](O)[C@H](O)[C@H]3O)C12 (stereo partly drawn)", "Potency": "inactive"}
{"compound": "O=C(O)C1(c2ccc(-c3ccc(Cl)c(Cl)c3)c(F)c2)CC1", "Potency": "44.1 µM (active)"}

stdin: Please look up its Potency: Cc1ccc2[nH]c(=O)c(C3=NN(C(=O)CCC(=O)O)C(c4ccc(Br)cc4)C3)c(-c3ccccc3)c2c1 (stereo not drawn)
stdout: 44.1 µM (active)

stdin: Repeat with C=C1CCC2C(C)(C)CCC[C@]2(C)[C@H]1CC/C(C)=C/C(=O)O (stereo partly drawn)
stdout: 44.1 µM (active)

stdin: Repeat with O=C(Nc1ccccc1)Nc1ccc(-c2ccc(C(=O)C3CCCC3C(=O)O)cc2)cc1 (stereo not drawn)
stdout: 27.8 µM (active)
